- Tested on: mock-infected MT-4 cells
- procedure.details: Cytotoxicity in mock-infected MT-4 cells (MTT)
- Assay type: cell-based
- condition.parameters: concentration reducing absorbance of mock-infected MT-4 control by 50%
outcome.measure: CC50

See these solved cases before continuing.
Cc1cc(C)cc(Oc2c(CNC(=O)c3cc4ccccc4o3)c(C)[nH]c(=O)c2I)c1: > 10 µM
C=Cc1cccc(Oc2c(CC)c(C)[nH]c(=O)c2I)c1: 25 µM
CCc1c(COC(N)=O)[nH]c(=O)c(I)c1Oc1cc(C)cc(C)c1: > 10 µM
Cc1cc(C)cc(Sc2c(/C=N/OCc3ccccc3)c(C)[nH]c(=O)c2I)c1: > 100 µM
Cc1cc(C)cc(Oc2c(Cn3ccnn3)c(C)[nH]c(=O)c2I)c1: > 100 µM
CON=Cc1c(C)[nH]c(=O)c(I)c1Sc1cc(C)cc(C)c1: > 100 µM
CCc1c(C)[nH]c(=O)c(Br)c1Oc1cc(C)cc(C)c1: > 10 µM
CCc1c(CCCO)[nH]c(=O)c(I)c1Oc1cc(C)cc(C)c1: > 10 µM
Cc1cc(C)cc(Oc2c(COCCO)c(C)[nH]c(=O)c2I)c1: > 32 µM
CCc1c(C)[nH]c(=O)c(Sc2ccccc2)c1Oc1cc(C)cc(C)c1: 25 µM

Give CC50 for CCc1c(C)[nH]c(=O)c(I)c1Oc1cccc(/C=C/C#N)c1
> 100 µM

----------
outcome.measure: melting point

See these solved cases before continuing.
CCOCc1c(C)[nH]c(=O)c(I)c1Sc1cc(C)cc(C)c1: 220 to 222 °C
CCOCc1c(C)[nH]c(=O)c(Br)c1Sc1cc(C)cc(C)c1: 183 to 184 °C
CCc1c(C=O)[nH]c(=O)c(I)c1Oc1cc(C)cc(C)c1: 158 °C

Give melting point for Cc1cc(C)cc(Sc2c(CO)c(C)[nH]c(=O)c2I)c1
240 °C

Give melting point for CCOCc1c(C)[nH]c(=O)c(I)c1Oc1cc(C)cc(C)c1
234 to 236 °C

Give melting point for Cc1cc(C)cc(Oc2c(CCl)c(C)[nH]c(=O)c2I)c1
256 to 258 °C

----------
- Tested on: HIV-1
- condition.parameters: dose achieving 50% protection of HIV-infected MT-4 cells, MTT, OD 540 nm
Below is a list of entries, each paired with its recorded pIC50 value.
In simple prose, pIC50 is minus the logarithm base ten of a concentration in moles per litre.

CCc1c(C)[nH]c(=O)c(Br)c1Oc1cc(C)cc(C)c1 [compound 284]: 8.70

Give pIC50 for CCc1c(C)[nH]c(=O)c(SC)c1Oc1cc(C)cc(C)c1 [compound 272]
8.70

Give pIC50 for CCc1c(C)[nH]c(=O)c(I)c1Oc1cccc(N)c1 [compound 121]
8.00

Give pIC50 for CCc1c(C)[nH]c(=O)c(I)c1Oc1cccc(/C=C/C=C/C#N)c1 [compound 299]
8.60

Give pIC50 for Cc1cc(C)cc(Oc2c(CN3CCN(C(=O)c4ccco4)CC3)c(C)[nH]c(=O)c2I)c1 [compound 700]
8.10

----------
- System: mock-infected MT-4 cells
- procedure.details: Cytotoxicity in mock-infected MT-4 cells (MTT)
- Type: cell-based
- condition.parameters: concentration reducing absorbance of mock-infected MT-4 control by 50%
Below is a list of entries, each paired with its recorded CC50 value.

CCc1c(C)[nH]c(=O)c(I)c1Oc1cccc(C=CC=NO)c1 [compound 309]: 10 µM
CCc1c(C)[nH]c(=O)c(I)c1Oc1cccc(Br)c1 [compound 307]: > 32 µM
Cc1cccc(Sc2c3c([nH]c(=O)c2I)CCCC3)c1 [compound 222]: 2 µM
COCCOCc1c(C)[nH]c(=O)c(I)c1Oc1cc(C)cc(C)c1 [compound 253]: > 10 µM
CCc1c(C)[nH]c(=O)c(I)c1Oc1cccc(C)c1 [compound 306]: > 32 µM
CCc1c(C)[nH]c(=O)c(I)c1Sc1cccc(C)c1 [compound 88]: > 100 µM

Give CC50 for CCc1c(C)[nH]c(=O)c(I)c1Oc1cccc(N)c1 [compound 121]
> 100 µM

Give CC50 for Cc1cc(C)cc(Oc2c(C=CC#N)c(C)[nH]c(=O)c2I)c1 [compound 140]
> 10 µM

Give CC50 for CCc1c(C)[nH]c(=O)c(I)c1Sc1cc(Cl)cc(Cl)c1 [compound 115]
8 µM

Give CC50 for Cc1cc(C)cc(Sc2c(Cn3ccnc3)c(C)[nH]c(=O)c2I)c1 [compound 606]
20 µM

Give CC50 for CCc1c(C)[nH]c(=O)c(SC)c1Oc1cc(C)cc(C)c1 [compound 272]
25 µM

Give CC50 for Cc1cc(C)cc(Sc2c(Cn3cccn3)c(C)[nH]c(=O)c2I)c1 [compound 589]
> 10 µM

Give CC50 for CCOCc1c[nH]c(=O)c(I)c1Oc1cc(C)cc(C)c1 [compound 256]
> 10 µM

----------
- System: HIV-1
- condition.parameters: dose achieving 50% protection of HIV-infected MT-4 cells, MTT, OD 540 nm
outcome.measure: pIC50
In simple prose, pIC50 is minus the logarithm base ten of a concentration in moles per litre.

See these solved cases before continuing.
CCc1c(C)[nH]c(=O)c(I)c1Oc1cccc([N+](=O)[O-])c1: 8.40
CCc1c(C)[nH]c(=O)c(I)c1Oc1cccc(C=O)c1: 8.20
CCc1c(C)[nH]c(=O)c(I)c1Cc1cccc(C)c1: 8.60
CCc1c(C)[nH]c(=O)c(I)c1Sc1cc(Cl)cc(Cl)c1: 8.60

Give pIC50 for Cc1cc(C)cc(Oc2c(CN3CCN(c4ccccn4)CC3)c(C)[nH]c(=O)c2I)c1
7.80

----------
- Test system: HIV-1
- condition.parameters: dose achieving 50% protection of HIV-infected MT-4 cells, MTT, OD 540 nm
Below is a list of entries, each paired with its recorded pIC50 value.
In simple prose, pIC50 is minus the logarithm base ten of a concentration in moles per litre.

See these solved cases before continuing.
CCc1c(C)[nH]c(=O)c(I)c1Oc1cc(C)cc(/C=C/C#N)c1 [compound 551]: 9.00
COCCc1c(C)[nH]c(=O)c(I)c1Oc1cc(C)cc(C)c1 [compound 264]: 9.00
CCc1c(C)[nH]c(=O)c(I)c1Sc1cccc(C)c1 [compound 88]: 8.60
CCc1c(C)[nH]c(=O)c(I)c1Oc1cccc(C=CC=NO)c1 [compound 309]: 8.20
CC(=O)c1ccc(N2CCN(Cc3c(C)[nH]c(=O)c(I)c3Oc3cc(C)cc(C)c3)CC2)cc1 [compound 694]: 8.00
Cc1cc(C)cc(Oc2c(Cn3cncn3)c(C)[nH]c(=O)c2I)c1 [compound 574]: 8.70
Cc1cccc(Sc2c3c([nH]c(=O)c2I)CCCC3)c1 [compound 222]: 8.10
CCc1c(C)[nH]c(=O)c(OC)c1Oc1cc(C)cc(C)c1 [compound 277]: 8.60

Next molecule, please.
Give pIC50 for Cc1cc(C)cc(Sc2c(Cn3cccc3)c(C)[nH]c(=O)c2I)c1 [compound 618]
8.70

----------
- System: HIV-1
- condition.parameters: dose achieving 50% protection of HIV-infected MT-4 cells, MTT, OD 540 nm
outcome.measure: log10 IC50 (log10 of the value in nM)
For clarity, the numbers are log10 values of IC50 expressed in nM.

CCOC(=O)c1c(Oc2cc(C)cc(C)c2)c(CC)c(C)[nH]c1=O: 0.70

Give log10 IC50 for CCc1c(C)[nH]c(=O)c(C2CC2)c1Oc1cc(C)cc(C)c1
0.80

Give log10 IC50 for Cc1cc(C)cc(Sc2c(Cn3ccnc3)c(C)[nH]c(=O)c2I)c1
0.11

Give log10 IC50 for CCc1c(C)[nH]c(=O)c(I)c1Oc1cc(/C(C)=C/C#N)cc(/C(C)=C/C#N)c1
-0.10

Give log10 IC50 for Cc1cc(C)cc(Oc2c(Cn3ccnn3)c(C)[nH]c(=O)c2I)c1
0.40

Give log10 IC50 for CCc1c(C)[nH]c(=O)c(I)c1Oc1cc(C)cc(/C=C/C#N)c1 [compound 83]
0.40

Give log10 IC50 for Cc1cc(C)cc(Oc2c(CSCc3ccccc3)c(C)[nH]c(=O)c2I)c1
0.80

Give log10 IC50 for CCc1c(C)[nH]c(=O)c(Sc2ccccc2)c1Oc1cc(C)cc(C)c1
1.00

Give log10 IC50 for CCc1c(C)[nH]c(=O)c(Br)c1Sc1cc(C)cc(C)c1
0.40

Give log10 IC50 for CCc1c(C)[nH]c(=O)c(C(F)(F)F)c1Oc1cc(C)cc(C)c1
0.51

----------
- Tested on: HIV-1
- condition.parameters: dose achieving 50% protection of HIV-infected MT-4 cells, MTT, OD 540 nm
Below is a list of entries, each paired with its recorded IC50 value.
Express it in nM; write the number only.

See these solved cases before continuing.
Cc1cccc(Sc2c3c([nH]c(=O)c2I)CCCCC3)c1: 6.3
CCc1c(COC(N)=O)[nH]c(=O)c(I)c1Oc1cc(C)cc(C)c1: 2
CCc1c(C)[nH]c(=O)c(I)c1Oc1cccc(/C=C/C#N)c1: 2
COCCOCc1c(C)[nH]c(=O)c(I)c1Oc1cc(C)cc(C)c1: 1.6

Next compound, please.
Give IC50 for COc1ccccc1Cc1c(C)[nH]c(=O)c(I)c1Oc1cc(C)cc(C)c1
1.3
